These entries and their values trace back to ChEMBL document CHEMBL3616366.

# Test system: Mus musculus
# ASSAY DETAILS: Neurotoxicity in albino CD-1 mouse assessed as motor impairment at 30 to 300 mg/kg mg/kg, ip measured after 2 hrs by rotarod test
# Type: toxicity, organism-based
# DETAILS: in vivo

{"columns": ["COMPOUND", "MTC"],
 "data": [
  ["CC1(c2ccccc2)CC(=O)N(CC(=O)N2CCN(c3ccccc3F)CC2)C1=O (stereo not given)", "300 mg/kg"],
  ["CC1(c2ccccc2)CC(=O)N(CC(=O)N2CCN(c3cccc(C(F)(F)F)c3)CC2)C1=O (stereo not given)", "Non-toxic"],
  ["CC1(c2ccccc2)CC(=O)N(CC(=O)N2CCN(Cc3ccccc3)CC2)C1=O (stereo not given)", "300 mg/kg"],
  ["CCCC(CCC)C(=O)O", "Non-toxic"],
  ["CC1(c2ccccc2)CC(=O)N(CC(=O)N2CCN(c3ccc(Cl)cc3)CC2)C1=O (stereo not given)", "Non-toxic"],
  ["CC1(c2ccccc2)CC(=O)N(CC(=O)N2CCC(Cc3ccccc3)CC2)C1=O (stereo not given)", "Non-toxic"],
  ["CC1(c2ccccc2)CC(=O)N(CC(=O)N2CCN(c3cccc(Cl)c3Cl)CC2)C1=O (stereo not given)", "Non-toxic"],
  ["CC1(c2ccccc2)CC(=O)N(CC(=O)N2CCN(c3cccc(Cl)c3)CC2)C1=O (stereo not given)", "Non-toxic"],
  ["CCC1(C)CC(=O)NC1=O (stereo not given) [ETHOSUXIMIDE]", "Non-toxic"],
  ["COc1cccc(N2CCN(C(=O)CN3C(=O)CC(C)(c4ccccc4)C3=O)CC2)c1 (stereo not given)", "Non-toxic"]
]}
